Target: T1, CD3 on primary human pan T cells (human, UniProt P07766 23-207)
T1 construct: on cells it stands in the TCR/CD3 complex; also called Pan T-cells (CD3-positive); endogenous CD3
T1 sequence (P07766 23-207 limits assumed): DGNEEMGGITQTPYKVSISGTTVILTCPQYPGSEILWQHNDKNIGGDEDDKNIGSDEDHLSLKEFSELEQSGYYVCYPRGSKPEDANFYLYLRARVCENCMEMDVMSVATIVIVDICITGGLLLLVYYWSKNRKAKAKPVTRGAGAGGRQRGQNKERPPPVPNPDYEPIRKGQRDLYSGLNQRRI
Test: flow cytometry, pan T-cells
endpointName: % Binding retained on T-cells, 65° C. (fraction)
Use fraction as the unit, but write only the number.

# example entries with known answers
Please give the measured % Binding retained on T-cells, 65° C. for this binder: CD3B2082 (scFv) scFv: QVQLVQSGAEVKKPGSSVKVSCKASGYTFTRSTMHWVRQAPGQGLEWMGYINPSSAYTNYAQKFQGRVTLTADKSTSTAYMELSSLRSEDTAVYYCASPQVHYDYNGFPYWGQGTLVTVSSGGSEGKSSGSGSESKSTGGSEIVLTQSPATLSASPGERVTLSCSASSSVSYMNWYQQKPGTSPRRWIYDSSKLASGVPARFSGSGSGRDYTLTISSLEPEDFAVYYCQQWSRNPPTFGGGTKVEIK
0.276

% Binding retained on T-cells, 65° C. lookup needed for CD3B2038 (scFv) scFv: QVQLVQSGAEVKKPGSSVKVSCKASGYTFTRSTMHWVKQAPGQGLEWMGYINPSSAYTNYAQKFQGRVTLTADKSTSTAYMELSSLRSEDTAVYYCASPQVHYDYNGFPYWGQGTLVTVSSGGSEGKSSGSGSESKSTGGSEIVLTQSPATLSASPGERVTLSCSASSSVSYMNWYQQKPGTAPRRLIYDSSKLASGVPARFSGSGSGRDYTLTISSLEPEDFAVYYCQQWSRNPPTFGGGTKVEIK , thanks.
0.279

Which % Binding retained on T-cells, 65° C. reading was recorded for the binder CD3B2037 (scFv) scFv: QVQLVQSGAEVKKPGSSVKVSCKASGYTFTRSTMHWVKQAPGQGLEWMGYINPSSAYTNYAQKFQGRVTLTADKSTSTAYMELSSLRSEDTAVYYCASPQVHYDYNGFPYWGQGTLVTVSSGGSEGKSSGSGSESKSTGGSEIVLTQSPATLSASPGERVTLSCSASSSVSYMNWYQQKPGTSPRRLIYDSSKLASGVPARFSGSGSGRDYTLTISSLEPEDFAVYYCQQWSRNPPTFGGGTKVEIK ?
0.061

Next:
Endpoint output: % Binding retained on T-cells, 65° C. of CD3B2045 (scFv) scFv: QVQLVQSGAEVKKPGSSVKVSCKASGYTFTRSTMHWVRQAPGQGLEWIGYINPSSAYTNYNQKFQGRVTLTADKSTSTAYMELSSLRSEDTAVYYCASPQVHYDYNGFPYWGQGTLVTVSSGGSEGKSSGSGSESKSTGGSEIVLTQSPATLSASPGERVTLSCSASSSVSYMNWYQQKPGQAPRRWIYDSSKLASGVPARFSGSGSGRDYTLTISSLEPEDFAVYYCQQWSRNPPTFGGGTKVEIK . Value?
0.296

I am curious: what % Binding retained on T-cells, 65° C. value has been reported for CD3B2081 (scFv) scFv: QVQLVQSGAEVKKPGSSVKVSCKASGYTFTRSTMHWVRQAPGQGLEWIGYINPSSAYTNYAQKFQGRVTLTADKSTSTAYMELSSLRSEDTAVYYCASPQVHYDYNGFPYWGQGTLVTVSSGGSEGKSSGSGSESKSTGGSEIVLTQSPATLSASPGERVTLSCSASSSVSYMNWYQQKPGQAPRRWIYDSSKLASGVPARFSGSGSGRDYTLTISSLEPEDFAVYYCQQWSRNPPTFGGGTKVEIK ?
0.102
